TESTED TARGET: NL20 human bronchial epithelial cells expressing human Z-AAT (Homo sapiens, UniProt P01009, E366K)
Sequence (P01009 25-418 E366K): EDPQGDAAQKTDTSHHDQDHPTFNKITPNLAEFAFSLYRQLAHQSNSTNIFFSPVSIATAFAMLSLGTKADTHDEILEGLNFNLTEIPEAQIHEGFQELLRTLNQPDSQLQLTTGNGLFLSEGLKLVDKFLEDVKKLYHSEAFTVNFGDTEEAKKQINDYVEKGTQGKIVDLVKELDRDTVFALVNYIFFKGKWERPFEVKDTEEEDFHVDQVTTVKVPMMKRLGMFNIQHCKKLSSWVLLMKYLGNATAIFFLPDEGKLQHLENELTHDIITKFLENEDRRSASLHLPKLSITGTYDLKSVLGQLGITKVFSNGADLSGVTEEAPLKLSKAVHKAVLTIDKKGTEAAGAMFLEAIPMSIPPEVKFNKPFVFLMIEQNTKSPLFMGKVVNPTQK
EXPERIMENT NOTES: AAT Function Assay (MSD Assay NL20-SI Cell Line)
CONDITION INFO: functionally active AAT (AAT-hNE complex, MSD) from NL20 cells expressing human Z-AAT; read-out: NL20 Functional EC50
Source text: Example 1: AAT Function Assay (MSD Assay NL20-SI Cell Line) Alpha-1 antitrypsin (AAT) is a SERPIN (serine protease inhibitor) that inactivates enzymes by binding to them covalently. This assay measured the amount of functionally active AAT in a sample in the presence of the disclosed compounds 1-262 by determining the ability of AAT to form an irreversible complex with human neutrophil Elastase (hNE). […]
ENDPOINT LABEL: EC50

These recorded examples may help you get a feel for the data.
Lookup: Which value of EC50 has been reported for COc1ccnc(-c2c(C(C)C)c(-c3ccc(C(=O)O)cc3)nc3cc4[nH]ncc4cc23)c1 [Compound 262] in the records?
Found: > 3000 nM

Lookup: Requested read-out: EC50. Entry: COc1nc(C(=O)O)ccc1-c1nc2c(C)c3[nH]ncc3cc2c(-c2ccc(F)cc2)c1C(C)C [Compound 189]
Found: < 1160 nM

Lookup: Look up EC50: CC(C)c1c(O[C@H]2C[C@H](C(=O)O)C2)nc2cc3[nH]ncc3cc2c1-c1ccc(F)cc1 [Compound 176]
Found: < 1160 nM

Further cases:
Lookup: Fill in: EC50 of COc1c(C(=O)O)ccc(Oc2nc(C3CCOCC3)c(-c3ccc(F)c(F)c3)c3cc4cn[nH]c4cc23)c1F [Compound 44] is ___
Found: < 1160 nM

Lookup: Form field: reported EC50 of Cc1c2nc(C3=CCC(=O)CC3)c(C(C)C)c(-c3ccc(F)cc3)c2cc2cn[nH]c12 [Compound 183]
Found: > 3000 nM

Lookup: Consider the molecule shown here: O=C(O)[C@H]1CC[C@@H](Oc2nc(C3CCOCC3)c(-c3ccc(F)c(F)c3)c3cc4cn[nH]c4cc23)CC1 [Compound 58] What is its recorded EC50?
Found: 1160 to 3000 nM

Lookup: Please report the recorded EC50 for COC1(c2nc(O[C@H]3C[C@H](C(=O)O)C3)c3cc4[nH]ncc4cc3c2-c2ccc(F)c(F)c2)CCC1 [Compound 142] .
Found: < 1160 nM
